Measured TGI, listed per entry.
System: M14 melanoma
Assay: NCI tumour cell line growth inhibition, 48 h
Observation type: TGI

Compound: O=C(CCN1CC2CCC(CC2)C1)c1cccs1
Observation type: TGI
Result: 31.8 µM
//
Compound: CCCc1cc2cc(-n3nc(C)c4c3CC(C)(C)CC4=O)cc(NC3CCC(O)CC3)c2c(=O)[nH]1 (configuration not stated)
Observation type: TGI
Result: > 100 µM
//
Compound: COC(=O)c1ccc(N=NN(C)COc2ccc(C#N)cc2)cc1
Observation type: TGI
Result: > 100 µM
//
Compound: CC1(C)OC(C(N)=O)=C(C(N)=O)O1
Observation type: TGI
Result: > 100 µM
//
Compound: O=S(=O)(N=S(c1ccc(Cl)cc1)c1ccc(Cl)cc1)c1ccccc1
Observation type: TGI
Result: > 100 µM
//
Compound: COc1ccccc1C(C1=C(O)COC1=O)c1cc2c(cc1OC(C)=O)OCO2 (configuration not stated)
Observation type: TGI
Result: > 100 µM
//
Compound: CC(=O)O[C@H]1C(=O)O[C@@H]2C[C@H]3C(C)=CC(=O)[C@@H](O)[C@]3(C)[C@H]3[C@@]4(O)OC[C@]32[C@@H]1[C@@H](C)[C@H]4O
Observation type: TGI
Result: 0.0838 µM
//
Compound: CCC(C)OC(=O)C1C2CCC(O2)C1C(=O)O (configuration not stated)
Observation type: TGI
Result: > 100 µM
//
Compound: Oc1c2cc(Br)cc1CCc1cc(Br)cc(c1O)CC2
Observation type: TGI
Result: 36.7 µM
//
Compound: COc1cc(/C=C2\CN(C)C/C(=C\c3cc(OC)c(OC)c(OC)c3)C2=O)cc(OC)c1OC
Observation type: TGI
Result: 1.57 µM
//
Compound: COc1ccc(C(c2ccc(C(C)C)cc(=O)c2O)c2ccc3cccnc3c2O)cc1 (configuration not stated)
Observation type: TGI
Result: 3.06 µM
//
Compound: CN=C1Nc2ccc(Cl)cc2C(c2ccccc2)=NN1C
Observation type: TGI
Result: > 100 µM
//
Compound: CNNCc1ccc(C(=O)NC(C)C)cc1
Observation type: TGI
Result: > 500 µM
//
Compound: CCCN1CN(C(C(=O)N[C@@H]2C(=O)N3C2SC(C)(C)C3C(=O)O)c2ccccc2)CSC1=S (some centres not stated)
Observation type: TGI
Result: > 100 µM
//
Compound: O=C1c2cccnc2S(=O)N1Cc1ccccc1 (configuration not stated)
Observation type: TGI
Result: > 100 µM
//
Compound: CCCCCCCCCCCCn1c(=O)cc(NCCCC)c2cc3c(NCCCC)cc(=O)n(CCCCCCCCCCCC)c3nc21
Observation type: TGI
Result: > 100 µM
//
Compound: C[C@]12CCC(=O)C=C1CC[C@@H]1[C@@H]2[C@@H](O)C[C@@]2(C)[C@H]1CC[C@]2(O)C(=O)CO
Observation type: TGI
Result: > 100 µM

Every entry's value here was drawn from PubChem BioAssay (NCI).
